Each recorded value in this set is attributed to ChEMBL document CHEMBL4229379.

Measured log10(MIC) of individual entries
# Tested on: Enterococcus faecalis
# assay_protocol: Antibacterial activity against vancomycin-sensitive Enterococcus faecalis ATCC 29212 after 18 hrs by CLSI broth microdilution method
# Format: functional
# measurement_context: ATCC 29212, 18 h
quantity_measured: log10(MIC) (log10 of the value in µg/mL)

INSERT INTO measurements (compound, measurement) VALUES
  ('CN(C)C(=N)c1ccc2cc(-c3cnc(-c4cc5ccc(C(=N)N(C)C)cc5[nH]4)s3)[nH]c2c1', 0.00),
  ('c1cc2cc(-c3ccc(-c4cc5ccc(C6=NCCCN6)cc5[nH]4)cc3)[nH]c2cc1C1=NCCCN1', -0.30),
  ('CN(C)CCCNC(=N)c1ccc2cc(-c3ccc(-c4cc5ccc(C(=N)NCCCN(C)C)cc5[nH]4)cc3)[nH]c2c1', 0.60),
  ('N=C(c1ccc2cc(-c3ccc(-c4cc5ccc(C(=N)N6CCOCC6)cc5[nH]4)cc3)[nH]c2c1)N1CCOCC1', 0.60),
  ('CN1CCC2(CC1)CCN(C(=N)c1ccc3cc(-c4ccc(-c5cc6ccc(C(=N)N7CCC8(CCN(C)CC8)C7)cc6[nH]5)cc4)[nH]c3c1)C2', 1.20),
  ('CN(C)CCNC(=N)c1ccc2cc(-c3ccc(-c4cc5ccc(C(=N)NCCN(C)C)cc5[nH]4)cc3)[nH]c2c1', 0.60),
  ('CCC(CC)NC(=N)c1ccc2cc(-c3ccc(-c4cc5ccc(C(=N)NC(CC)CC)cc5[nH]4)cc3)[nH]c2c1', 0.30),
  ('CN(C)C(=N)c1ccc2cc(-c3ccc(Oc4ccc(-c5cc6ccc(C(=N)N(C)C)cc6[nH]5)cc4)cc3)[nH]c2c1', -0.30),
  ('CN(C)C(=N)c1ccc2cc(-c3ccc4cc(-c5cc6ccc(C(=N)N(C)C)cc6[nH]5)ccc4c3)[nH]c2c1', 1.51),
  ('CN(C)C(=N)c1ccc2cc(-c3ccc(-c4cc5ccc(C(=N)N(C)C)cc5[nH]4)nc3)[nH]c2c1', 0.60),
  ('N=C(c1ccc2cc(-c3ccc(-c4cc5ccc(C(=N)N6CCCC6)cc5[nH]4)cc3)[nH]c2c1)N1CCCC1', 0.60),
  ('CN(C)C(=N)c1ccc2cc(-c3ccc4ccc(-c5cc6ccc(C(=N)N(C)C)cc6[nH]5)cc4c3)[nH]c2c1', 2.11),
  ('C[C@H]1COc2c(N3CCN(C)CC3)c(F)cc3c(=O)c(C(=O)O)cn1c23.C[C@H]1COc2c(N3CCN(C)CC3)c(F)cc3c(=O)c(C(=O)O)cn1c23.O', -0.30),
  ('CCC(C)NC(=N)c1ccc2cc(-c3ccc(-c4cc5ccc(C(=N)NC(C)CC)cc5[nH]4)cc3)[nH]c2c1 (configuration not stated)', 0.00),
  ('CC(C)NC(=N)c1ccc2cc(-c3ccc(-c4cc5ccc(C(=N)NC(C)C)cc5[nH]4)cc3)[nH]c2c1', -0.60),
  ('CN(C)C(=N)c1ccc2cc(-c3cccc(-c4cc5ccc(C(=N)N(C)C)cc5[nH]4)c3)[nH]c2c1', 1.81),
  ('CN(C)C(=N)c1ccc2cc(-c3cnc(-c4cc5ccc(C(=N)N(C)C)cc5[nH]4)cn3)[nH]c2c1', 0.60),
  ('CNC(=N)c1ccc2cc(-c3ccc(-c4cc5ccc(C(=N)NC)cc5[nH]4)cc3)[nH]c2c1', 0.30),
  ('CN(C)C(=N)c1ccc2cc(-c3ccc(-c4cc5ccc(C(=N)N(C)C)cc5[nH]4)cc3)[nH]c2c1', 0.00),
  ('CN(C)C(=N)c1ccc2cc(-c3cncc(-c4cc5ccc(C(=N)N(C)C)cc5[nH]4)c3)[nH]c2c1', 0.30),
  ('N=C(c1ccc2cc(-c3ccc(-c4cc5ccc(C(=N)N6CC=CC6)cc5[nH]4)cc3)[nH]c2c1)N1CC=CC1', 0.90),
  ('CN1CCN(C(=N)c2ccc3cc(-c4ccc(-c5cc6ccc(C(=N)N7CCN(C)CC7)cc6[nH]5)cc4)[nH]c3c2)CC1', 0.90),
  ('N=C(c1ccc2cc(-c3ccc(-c4cc5ccc(C(=N)N6CC=CCC6)cc5[nH]4)cc3)[nH]c2c1)N1CC=CCC1', 0.60),
  ('N=C(c1ccc2cc(-c3ccc(-c4cc5ccc(C(=N)N6CCC6)cc5[nH]4)cc3)[nH]c2c1)N1CCC1', 0.60),
  ('N=C(c1ccc2cc(-c3ccc(-c4cc5ccc(C(=N)N6CCC(N7CCCC7)CC6)cc5[nH]4)cc3)[nH]c2c1)N1CCC(N2CCCC2)CC1', 1.20),
  ('COCCNC(=N)c1ccc2cc(-c3ccc(-c4cc5ccc(C(=N)NCCOC)cc5[nH]4)cc3)[nH]c2c1', -0.30),
  ('CCNC(=N)c1ccc2cc(-c3ccc(-c4cc5ccc(C(=N)NCC)cc5[nH]4)cc3)[nH]c2c1', 0.00),
  ('CCN(C)C(=N)c1ccc2cc(-c3ccc(-c4cc5ccc(C(=N)N(C)CC)cc5[nH]4)cc3)[nH]c2c1', 0.00);
